- System: bacterial biofilms
- assay_method_text: MBEC (Minimum Biofilm Eradication Concentration) assay using the Calgary Biofilm Device
- Assay type: cell-based
- conditions: metal ion solution in combination with 0.1% DDAC, approx. pH 5.5; lowest concentration at which activity was observed; values approximate
assay_readout: MBEC for the metal ion, With 0.1% DDAC

1) O.O.O.O.[Cl][Mn][Cl] [Manganese, manganese (II) chloride tetrahydrate]
≦0.24 ppm
2) O=[N+]([O-])[O-].[Ag+] [Silver, silver nitrate]
0.097 ppm
3) O.O.O.O.O.O.O.O=S(=O)([O-])[O-].[Fe+2] [Iron (II), iron (II) sulphate heptahydrate]
≦0.24 ppm
4) O=[N+]([O-])[O-].O=[N+]([O-])[O-].O=[N+]([O-])[O-].[Ga+3] [Gallium, gallium (III) nitrate]
≦0.24 ppm
